Test: Inhibition of FLT3 Y591-V592insVDFREYEYD mutant (unknown origin) incubated for 120 mins by ADP-glo based luminescence assay
Set-up: species or system Homo sapiens
ASSAY METRIC: pKi
Units for pKi: none; it is -log10 of a concentration expressed in mol/L.

Which measured pKi value corresponds to CC(=O)N1CCN(c2ccc(Nc3nccc(-c4cn(C)c5ncccc45)n3)cc2)CC1 ?
6.73

* * *

Target: Cyclin-dependent kinase 1/cyclin B1 (Homo sapiens)
Sequence (P06493 whole entry): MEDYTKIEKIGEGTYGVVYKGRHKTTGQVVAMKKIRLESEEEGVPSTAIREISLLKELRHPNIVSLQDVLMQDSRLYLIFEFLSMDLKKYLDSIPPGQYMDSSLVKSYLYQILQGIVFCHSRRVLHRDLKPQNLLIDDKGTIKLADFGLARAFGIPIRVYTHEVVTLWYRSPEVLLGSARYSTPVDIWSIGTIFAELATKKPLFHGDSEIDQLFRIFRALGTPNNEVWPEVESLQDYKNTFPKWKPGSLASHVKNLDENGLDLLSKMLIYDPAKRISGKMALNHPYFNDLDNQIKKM
Sequence (P14635 whole entry, further chain): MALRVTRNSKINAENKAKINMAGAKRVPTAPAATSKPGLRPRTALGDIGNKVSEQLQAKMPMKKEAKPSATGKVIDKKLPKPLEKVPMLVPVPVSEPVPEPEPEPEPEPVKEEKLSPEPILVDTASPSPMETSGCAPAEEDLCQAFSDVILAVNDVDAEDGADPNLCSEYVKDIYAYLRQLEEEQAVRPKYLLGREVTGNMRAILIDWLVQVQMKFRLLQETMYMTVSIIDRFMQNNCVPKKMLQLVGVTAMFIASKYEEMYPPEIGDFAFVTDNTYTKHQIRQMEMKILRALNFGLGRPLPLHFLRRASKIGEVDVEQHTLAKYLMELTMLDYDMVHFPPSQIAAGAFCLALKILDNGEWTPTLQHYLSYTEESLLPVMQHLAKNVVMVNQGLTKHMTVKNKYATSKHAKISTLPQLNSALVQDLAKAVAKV
Assay: Inhibition of CDK1/cyclin B (unknown origin) using histone 1 protein substrate incubated for 120 mins measured after 40 mins incubation under dark by ADP-glo based luminescence assay
pKi: −log10 of the molar value.
ASSAY METRIC: pKi

Some solved cases for reference:
> print(dat)
                              smiles.string  assay.metric  recorded.value
1  CC(=O)N1CCCN(c2cccc(Nc3nccc(-c4n[nH]c5ccccc45)n3)c2)CC1           pKi            6.14
2  CC(=O)N1CCCN(c2cccc(Nc3nccc(-c4cnc5n(C)cccc4-5)n3)c2)CC1           pKi            5.76
3  CC(=O)N1CCN(c2ccc(Nc3ncc(C#N)c(-c4cn(C)c5ccccc45)n3)cc2)CC1           pKi            5.80

A. CC(=O)N1CCN(c2ccc(Nc3ncc(C#N)c(-c4n[nH]c5ccccc45)n3)cc2)CC1
B. CN1CCN(c2cccc(Nc3nccc(-c4c[nH]c5ncccc45)n3)c2)CC1
C. CC(=O)N1CCN(c2ccc(Nc3ncc(C#N)c(-c4c[nH]c5ccccc45)n3)cc2)CC1
D. CC(=O)N1CCCN(c2cccc(Nc3nccc(-c4c[nH]c5ncccc45)n3)c2)CC1
Rank the 4 compounds: largest pKi first, smallest last. Arrange the labels as the request states and list them.
D, B, A, C

Where do the numbers come from? From ChEMBL document CHEMBL4813946.
